Origin of measurements: BindingDB's records for doi:10.1016/j.bmcl.2007.07.028

Assay Comment: Antagonist activity at CCR2 in human PBMCs assessed as inhibition of MCP1-induced chemotaxis
Listing: IC50 of selected compounds

Cc1ccc(CNC[C@H](NC(=O)CNC(=O)c2cc(C(F)(F)F)ccc2NC(=O)NC(C)C)C(=O)NC(C)(C)C)c(C)c1 0.24 µM
Cc1ccc(CNC[C@H](NC(=O)CNC(=O)c2cc(C(F)(F)F)ccc2N)C(=O)NC(C)(C)C)c(C)c1 0.26 µM
Cc1ccc(CNC[C@H](NC(=O)CNC(=O)c2cccc(C(F)(F)F)c2)C(=O)NC(C)(C)C)c(C)c1 > 3 µM
Cc1ccc(CNC[C@H](NC(=O)CNC(=O)c2cc(N)cc(C(F)(F)F)c2)C(=O)NC(C)(C)C)c(C)c1 0.72 µM
Cc1ccc(CNC[C@H](NC(=O)CNC(=O)c2cc(C(F)(F)F)ccc2NCc2ccccc2)C(=O)NC(C)(C)C)c(C)c1 0.039 µM

Request: Tell me the measured IC50 of "CCNc1cc(C(=O)NCC(=O)N[C@@H](CNCc2ccc(C)cc2C)C(=O)NC(C)(C)C)cc(C(F)(F)F)c1" , please.
Result: 0.19 µM

Request: Tell me the measured IC50 of "Cc1ccc(CNC[C@H](NC(=O)CNC(=O)c2cccc(C(F)(F)F)c2)C(N)=O)c(C)c1" , please.
Result: > 1.5 µM

Request: Tell me the measured IC50 of "CCNc1ccc(C(F)(F)F)cc1C(=O)NCC(=O)N[C@@H](CNCc1ccc(C)cc1C)C(=O)NC(C)(C)C" , please.
Result: 0.1 µM
